molecular target: BRD4 protein (Homo sapiens); assay: FRET assay, half maximal inhibitory concentration (IC50); type: binding; settings: BRD4 protein 50 nM, Biotin-H4KAc4 peptide 12.5 nM; List of Classification
pIC50: −log10 of the molar value.
The entries below are paired with their reported pIC50.
Observation Type: pIC50

> print(dat)
                                    compound  result.value
 1  Cc1cc(O)nc2ccc(NC(=O)c3nc(C(C)O)ccc3N3CCCC3)cc12 (centres unmarked)  6.00 to 6.30
 2  Cc1cc(O)nc2ccc(NC(=O)c3cc(S(=O)(=O)N(C)C)ccc3N3CC(N(C)C)C3)cc12  6.30 to 6.70
 3  Cc1cc(O)nc2ccc(NC(=O)c3nc(-c4nnn[nH]4)ccc3N3CCCC3)cc12  5.00 to 6.00
 4  CC1CC(=O)Nc2ccc(NC(=O)c3cc(S(=O)(=O)N(C)C)ccc3N3CCCC3)cc21 (centres unmarked)        > 6.70
 5  Cc1cc(O)nc2c(C)cc(NC(=O)c3cc(S(=O)(=O)N(C)C)ccc3N3CCCC3)cc12        > 6.70
 6  Cc1cc(O)nc2ccc(NC(=O)c3cccnc3N3CCOC4COCC43)cc12 (centres unmarked)  6.00 to 6.30
 7  Cc1cc(O)nc2ccc(NC(=O)c3cc(C(C)O)ncc3N3CCOCC3)cc12 (centres unmarked)        > 6.70
 8  CC1CC(=O)Nc2ccc(NC(=O)c3cc(CN4CCOCC4)ccc3N3CCCC3)cc21 (centres unmarked)        > 6.70
 9  Cc1cc(O)nc2ccc(NC(=O)c3cc(CN4CCNCC4)ccc3N3CCCC3)cc12        > 6.70
10  Cc1cc2[nH]c(=O)cc(C)c2cc1NC(=O)c1cc(C#N)ncc1N1CCOCC1        > 6.70
11  Cc1cc(O)nc2ccc(NC(=O)c3nc(C#N)ccc3N3CCCC3)cc12  6.00 to 6.30
12  Cc1cc(O)nc2ccc(NC(=O)c3cccnc3N3CCn4ccnc4C3)cc12  6.00 to 6.30
13  Cc1cc2nc(O)cc(C)c2cc1NC(=O)c1cc(-c2nnn(C)n2)cnc1N1CCOCC1        > 6.70
14  Cc1noc(C)c1-c1cnc(N2CCOCC2)c(C(=O)Nc2ccc3nc(O)cc(C)c3c2)c1        > 6.70
15  Cc1ccnc(N2CCOCC2)c1C(=O)Nc1ccc2nc(O)cc(C)c2c1  5.00 to 6.00
16  Cc1cc(O)nc2ccc(NC(=O)c3cc(-c4ccoc4)ccc3N3CCOCC3)cc12        > 6.70
17  Cc1cc(O)nc2ccc(NC(=O)c3cc(CN4CCOCC4)cnc3N3CCC(F)C3)cc12 (centres unmarked)        > 6.70

====

target: BRD4 protein (Homo sapiens, UniProt O60885); assay: FRET assay, half maximal inhibitory concentration (IC50); assay type: binding; settings: BRD4 protein 50 nM, Biotin-H4KAc4 peptide 12.5 nM; List of Classification
The entries below are paired with their reported IC50.
Observation Type: IC50

> print(dat)
                                   compound                              study.system  observation.type  result.value
1  Cc1cc(O)nc2ccc(NC(=O)c3cccnc3N3CCCC3)cc12  BRD4 protein (Homo sapiens, UniProt O60885)              IC50      < 0.2 µM
2  Cc1cc2nc(O)cc(C)c2cc1NC(=O)c1cccnc1N1CCOCC1  BRD4 protein (Homo sapiens, UniProt O60885)              IC50   0.5 to 1 µM
3      COc1ccccc1C(=O)Nc1ccc2nc(O)cc(C)c2c1  BRD4 protein (Homo sapiens, UniProt O60885)              IC50       > 10 µM
4  COC(C)c1ccc(N2CCCC2)c(C(=O)Nc2ccc3nc(O)cc(C)c3c2)c1 (centres unmarked)  BRD4 protein (Homo sapiens, UniProt O60885)              IC50      < 0.2 µM
5  Cc1cc2nc(O)cc(C)c2cc1NC(=O)c1cccnc1N1CCC(F)C1 (centres unmarked)  BRD4 protein (Homo sapiens, UniProt O60885)              IC50   0.5 to 1 µM

====

biological target: BRD4(2), second bromodomain of BRD4 (Homo sapiens); construct: BRD4(2) for the second bromodomain of BRD4; purchased DiscoveRx Corporation (assay service); host or cells: T7 phage grown in an E. coli host derived from the BL21 strain; assay: Bromoscan assay BRD4(2) (DiscoveRx); type: binding; details: read-out: BromoScan BRD4_2 Kd/nM
Observation Type: Kd (nM)

> print(dat)
                              record.smiles                              study.system  readout.unit  result.value
1  Cc1cc(O)nc2ccc(NC(=O)c3cc(C4(N5CCOCC5)CC4)ccc3N3CCCC3)cc12  BRD4(2), second bromodomain of BRD4 (Homo sapiens)            nM           190
2  Cc1cc(O)nc2ccc(NC(=O)c3cc(S(=O)(=O)N4CCCCC4)ccc3N3CCOCC3)cc12  BRD4(2), second bromodomain of BRD4 (Homo sapiens)            nM          1180
3  Cc1cc(O)nc2ccc(NC(=O)c3cccnc3N3CCOCC3)cc12  BRD4(2), second bromodomain of BRD4 (Homo sapiens)            nM          2500
4  Cc1cc(O)nc2c(C)cc(NC(=O)c3cc(S(=O)(=O)N(C)C)ccc3N3CCCC3)cc12  BRD4(2), second bromodomain of BRD4 (Homo sapiens)            nM            28

====

biological target: BRD4(1), first bromodomain of BRD4 (Homo sapiens, UniProt O60885); construct: BRD4(1) for the first bromodomain of BRD4; purchased DiscoveRx Corporation (assay service); host or cells: T7 phage grown in an E. coli host derived from the BL21 strain; assay: Bromoscan assay BRD4(1) (DiscoveRx); format: binding; conditions: first bromodomain of BRD4; read-out: BromoScan BRD4_1 Kd/nM
Classify: class 1 when Kd is strictly less than 6 nM; class 0 when Kd is not.

> print(dat)
                                   compound  group.label
1  Cc1cc(O)nc2ccc(NC(=O)c3cc(C4(N5CCOCC5)CC4)ccc3N3CCCC3)cc12 [Compound-113]      class 0
2  Cc1cc(O)nc2ccc(NC(=O)c3cc(C(C)O)ncc3N3CCCC3)cc12 (stereo not shown) [Compound-43]      class 1
3  Cc1cc(O)nc2ccc(NC(=O)c3cccnc3N3CCOCC3)cc12 [Compound-128]      class 0
4  Cc1cc2nc(O)cc(C)c2cc1NC(=O)c1cc(S(=O)(=O)N(C)C)ccc1N1CCOCC1 [Compound-99]      class 0
5  Cc1cc(O)nc2ccc(NC(=O)c3cc(S(=O)(=O)N4CCCCC4)ccc3N3CCOCC3)cc12 [Compound-67]      class 0
6  Cc1cc(O)nc2ccc(NC(=O)c3cc(CN4CCN(C)CC4)ccc3N3CCCC3)cc12 [compound 1]      class 0
7  Cc1cc(O)nc2c(C)cc(NC(=O)c3cc(S(=O)(=O)N(C)C)ccc3N3CCCC3)cc12 [Compound-107]      class 1

====

Target: BRD4(1), first bromodomain of BRD4 (Homo sapiens)
Construct: BRD4(1) for the first bromodomain of BRD4; purchased DiscoveRx Corporation (assay service); host or cells: T7 phage grown in an E. coli host derived from the BL21 strain
Assay: Bromoscan assay BRD4(1) (DiscoveRx)
Assay type: binding
Conditions: ratio of Kd BRD4_2 to BRD4_1; selectivity for BRD4_1 over BRD4_2
Method: Bromoscan assays were run by DiscoveRx Corporation. The relevant assay names are BRD4(1) for the first bromodomain of BRD4 and BRD4(2) for the second bromodomain of BRD4. Further Bromoscan assays covering other bromodomains could be employed to establish the selectivity profile of a compound of interest. […] The bromodomain concentration in the eluates was measured by qPCR (quantitative real-time polymerase chain reaction).
Observation Type: BromoScan BRD4_2/1

> print(dat)
                                   compound                              study.system  result.value
1  Cc1cc2nc(O)cc(C)c2cc1NC(=O)c1cc(S(=O)(=O)N(C)C)ccc1N1CCOCC1  BRD4(1), first bromodomain of BRD4 (Homo sapiens)         466.7
2  Cc1cc(O)nc2ccc(NC(=O)c3cccnc3N3CCOCC3)cc12  BRD4(1), first bromodomain of BRD4 (Homo sapiens)         166.7
3  Cc1cc(O)nc2ccc(NC(=O)c3cc(C(C)O)ncc3N3CCCC3)cc12 (stereo not drawn)  BRD4(1), first bromodomain of BRD4 (Homo sapiens)          32.9
